System: HeLa cells
Experiment: Compound screen by flow cytometry: HeLa cell count as surrogate readout of cell viability (z-scoreHeLa); also: test concentration or dose not given here
Assay type: cell-based, human
Conditions: compound screen, HeLa cell count, replicate 1
In this section we review reported z-scoreHeLa rep 1 values for a set of molecules.

> print(dat)
                                   molecule  result
1  CN1CCN(Cc2ccc(NC(=O)Nc3ccc(N(C)c4ccnc(Nc5ccc(CS(C)(=O)=O)cc5)n4)cc3)cc2)CC1 [GW827654A]    0.07
2  Cn1cc(-c2ccc3c(c2)CCN3C(=O)Cc2cc(F)cc(F)c2F)c2c(N)ncnc21 [GSK2634140A]   -1.44
3  CS(=O)(=O)CCNCc1nc(-c2ccc3ncnc(Nc4ccc(OCc5cccc(F)c5)c(Cl)c4)c3c2)cs1 [GW583340C]    1.17

# query: z-scoreHeLa rep 1 | item COC(=O)Nc1nc2ccc(Oc3ccc(NC(=O)Nc4cc(C(F)(F)F)ccc4F)cn3)cc2[nH]1 [GW681170A] | system: HeLa cells 1.06
